Where these numbers come from: ChEMBL document CHEMBL1201861

# Test system: COR-L279
# Test details: SANGER: Inhibition of human COR-L279 cell growth in a cell viability assay.
# Assay type: functional, cell-based
# Measurement parameters: cor-l279
Measured parameter: IC50 (µM)
Field: numeric (µM). Do not append units.

Notebook: `BLEOMYCIN` , IC50 read as 25.4

* * *

# System: A2780;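 note: growth inhibition of A2780 cells, read out with a cell viability assay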
# Test details: cells
# Assay type: functional, cell-based, Homo sapiens
# Measurement parameters: Homo sapiens, A2780
# Description: SANGER: Inhibition of human A2780 cell growth in a cell viability assay.
Here, each record is paired with measured IC50 data.
A number alone suffices; assume µM.

Measured IC50, `COc1cccc2c1C(=O)c1c(O)c3c(c(O)c1C2=O)C[C@@](O)(C(=O)CO)C[C@@H]3O[C@H]1C[C@H](N)[C@H](O)[C@H](C)O1` : 0.0688

In plain terms, `Oc1ccc2ccccc2c1SSc1c(O)ccc2ccccc12` has a documented IC50 of 28.4
